# Test system: Mus musculus
# ASSAY DETAILS: Effect on heart rate in C57BL/6 mouse at 63.01 umol/kg, po after 3 hrs (reference value: 448 bpm)
# Assay type: ADME, organism-based
# CONDITION: in vivo
REPORTED PROPERTY: Activity (bpm)
Report only the number, with the unit bpm understood.

COc1ccc(Cl)cc1C(=O)NCCc1ccc(C(=O)OCCO[N+](=O)[O-])cc1 | 458
CCN(CC)/[N+]([O-])=N\OCOC(=O)[C@@H](Cc1ccccc1)NC(=O)[C@H]1CC[C@H](C(C)C)CC1 | 458
CC(C)[C@H]1CC[C@H](C(=O)N[C@H](Cc2ccccc2)C(=O)OCCO[N+](=O)[O-])CC1 | 458
COc1ccc(Cl)cc1C(=O)NCCc1ccc(C(=O)OCO/N=[N+](\[O-])N2CCCC2)cc1 | 458

The molecule listed as CC(C)[C@H]1CC[C@H](C(=O)N[C@H](Cc2ccccc2)C(=O)OCO/N=[N+](/[O-])N2CCCC2)CC1 shows Activity equal to 458

The molecule listed as CCN(CC)/[N+]([O-])=N/OCOC(=O)c1ccc(CCNC(=O)c2cc(Cl)ccc2OC)cc1 shows Activity equal to 458
